The reported numbers originate from patent US20240301319A1.

- protocol: Volatility of perfuming compounds (Tables 4 to 10), with top/middle/bottom note type
- Assay type: physicochemical
- details: Table 9, perfuming compounds having a gourmand note; note type by volatility
observable: Type

Past entries and their recorded results:
compound	recorded.measurement
CC(C)CCOCCc1ccccc1	Top
O=C1CCC2(CCCCC2)O1 [1-oxaspiro[4.5]decan-2-one]	Middle
C[C@@H]1CC[C@H]2[C@H](C)C(=O)O[C@@H]2C1	Middle
CCCCO	Top
CC1=CC[C@H](C(C)CC2CCCC2=O)CC1 (stereo partly drawn)	Bottom

Report Type for CCCCCC1CCC(=O)O1 (racemic) [(+−)-4-NONANOLIDE] please.
Bottom

Report Type for C/C=C/c1ccc(OC)cc1 [1-methoxy-4-[(1E)-1-propen-1-yl]benzene] please.
Top

Report Type for CCCCCC1CCCC1=O (racemic) [(+−)-2-pentylcyclopentanone] please.
Top

Report Type for COc1ccc(CCC(C)=O)cc1 please.
Bottom

Report Type for COc1cccc(OC)c1O please.
Bottom

Report Type for CCCCC1CCCC(=O)O1 (stereo not drawn) [5-NONANOLIDE] please.
Bottom

Report Type for CCCC=C1OC(=O)c2ccccc21 [3-BUTYLIDENE-1-BENZO[C]FURANONE] please.
Bottom

---

- protocol: Log P (n-octanol/water) of perfuming compounds (Tables 4 to 10)
- details: Table 6, perfuming compounds having a fruity note
observable: Log P (n-octanol/water)
// no unit, no text: just the number

Report Log P (n-octanol/water) for CC/C=C\CCOC(=O)C(C)CC (racemic) [(+−)-(Z)-3-HEXENYL 2-METHYLBUTANOATE] please.
3.84

Report Log P (n-octanol/water) for CC(C)CC(=O)OCc1ccccc1 [BENZYL 3-METHYLBUTANOATE] please.
3.45

Report Log P (n-octanol/water) for C=C(C)C1CC=C(C)CC1 (single isomer, unassigned; (+)) [(+)-LIMONENE] please.
5.40

Report Log P (n-octanol/water) for CCCCC1CCC(=O)O1 (racemic) [(+−)-4-OCTANOLIDE] please.
1.80

Report Log P (n-octanol/water) for CC(=O)CCc1ccccc1 please.
1.79

---

- protocol: Volatility of perfuming compounds (Tables 4 to 10), with top/middle/bottom note type
- Assay type: physicochemical
- details: note type (Top/Middle/Bottom) by volatility; perfuming compounds having a green note
- Protocol: In some aspects, the first perfume accord comprises perfuming compounds having a volatility ranging from 70,000 to 100 μg/l in air. In some aspects, perfuming compounds having a volatility ranging from 70,000 to 100 μg/l in air are referred to as “top notes”. In some aspects, the second perfume accord comprises perfuming compounds having a volatility ranging from 99 to 50 μg/l in air. […]
observable: Type

compound	Type
CCCC(C)C(=O)OCC (racemic) [(+−)-ETHYL 2-METHYLPENTANOATE]	Top
CC(CO)c1ccccc1 (racemic) [(+−)-2-phenyl-1-propanol]	Top
CC(=O)OC(C)CC(C)(C)c1ccccc1 (racemic) [(+−)-1,3-DIMETHYL-3-PHENYLBUTYL ACETATE]	Middle
CC1CC(C)(C)OC(Cc2ccccc2)O1 (centres unmarked)	Bottom
CCC/C=C/COC(C)=O [(E)-2-HEXENYL ACETATE]	Top
CCCCO	Top
CCC(=O)OCc1ccccc1 [BENZYL PROPANOATE]	Top
C/C=C(\C)C(=O)OCC/C=C\CC	Top

Report Type for CC(C)OCCc1ccccc1 please.
Top
